Origin of the recorded values: PubChem BioAssay (NCI)

# assay-notes: NCI Yeast Anticancer Drug Screen. Data for the bub3 strain (AID 167)
# experimental-setup: S. cerevisiae bub3 mutant strain, at 11.0 µM
# Protocol: Growth inhibition of yeast strains with defined genetic alterations is measured as a screen for potential anti-cancer activity. Selected strains with alterations in DNA damage repair or cell cycle control were exposed to compounds and growth inhibition was measured relative to vehicle treated controls. The strain used in this assay is bub3
This is part of a sample that, as a whole, favours compounds with a hit. Of some 79,000 tested, about 15% had one in any assay. Active and inactive are the calls of the source. No stated cut-off is given here; in the data, active means growth inhibition above about 70%; inactive means the rest.
Labels: Yes (active), No (inactive)

# compound, cat
data = [
    ("CC(C)OC(CCC#N)c1ccc(Cl)cc1 (centres undefined)", "No"),
    ("Cc1ccc2nc(N/N=C/c3ccc(C)s3)cc(C)c2c1", "No"),
    ("Cc1ccccc1C1=C(CC(=O)O)c2ccccc2CC1C (centres undefined)", "No"),
    ("c1cc(Nc2ccc3c(c2)OCO3)c2cc(C3CCCCC3)ccc2n1", "No"),
    ("O=C(O)/C=C\\C(=O)NNc1ccc(Br)cc1", "Yes"),
    ("COc1ccc2c(Cc3c4ccccc4cc4ccccc34)cncc2c1O", "No"),
    ("Cc1ccc(C(C)C)c(C(=C2C=CC(=[N+](C)C)C=C2)c2c(C(C)C)ccc(C)c2O)c1O", "Yes"),
    ("C[Si](C)(C)Cc1ccccc1C(=O)O", "No"),
    ("O=CC(=C(I)I)c1ccccc1", "No"),
    ("CN(C)CCNC(=O)c1cccc2nc3c4ccccc4c4ccccc4c3nc12", "Yes"),
    ("CCOc1nc(OCC)nc(-c2cccn2-c2ccccc2)n1", "No"),
    ("COc1ccc(/C=C2\\S/C(=N/Nc3nc(-c4ccccc4)cs3)NC2=O)cc1OC", "Yes"),
    ("CC1=NN(C(=O)CC(=O)N(C(=O)c2ccccc2)c2ccc(Cl)cc2)C(=O)C1N=Nc1ccc([N+](=O)[O-])cc1 (centres undefined)", "No"),
    ("c1cncc(C(Nc2cccc3cccnc23)Nc2cccc3cccnc23)c1", "No"),
    ("COc1ccc2nc3cccc([N+](=O)[O-])c3c(NCCCO)c2c1", "Yes"),
    ("O=c1[nH]c(=O)n(CCCO)cc1F", "No"),
    ("O=C(/C(=C/c1ccccc1)CBr)c1ccccc1", "No"),
    ("COc1ccc(/C(=N/O)c2ccccc2C2=Nc3ccccc3C(NCc3ccccc3)O2)cc1C (centres undefined)", "No"),
    ("Cc1nc2ccc(NCCN(C)C)c3c(=O)c4ccccc4n1c23", "No"),
    ("CCCCCCCCCCCCCCCCOCC(Cl)COP(=O)(O)OP(=O)(O)OCC1OC(n2cnc3c(N)ncnc32)C(O)C1O (centres undefined)", "No"),
    ("O=C(c1c(F)c(F)c(F)c(F)c1F)c1c(F)c(F)c(F)c(F)c1F", "Yes"),
    ("CCc1nc2ccc(N=Nc3c(O)ccc4ccccc34)cc2[nH]1", "No"),
    ("Clc1ccc(C(c2ccc(Cl)cc2)N2CCNCC2)cc1", "No"),
    ("CCOC(=O)c1[nH]c2cccc3c2c1CC(Br)C3=O (centres undefined)", "No"),
]
